study-system: T1, RSV-F.mmh (Respiratory Syncytial Virus)
T1 construct: also called recombinant RSV-F; soluble monomeric RSV-F
assay-notes: SPR (Biacore), mAb captured via Fc, soluble RSV-F.mmh injected, 25 C
Each entry below carries its recorded koff.
experimental-readout: koff (s⁻¹)

1) H1H3564P (antibody, V domains shown) VH: QVQLVQSGAEVKKPGSSVKVSCKASGGTLSNNAFSWVRQAPGQGLEWLGGFNPIFDTANYAQKFQGRITITLDASTGTVYMELSSLRSEDTGVYYCAGTGAHFEFWGQGTLVTVSS VL: DIQMTQSPSSLSASVGDRVTITCRTSQSISTYLNWYQQKPGKAPKFLIYAASTLQSGVPSRFSGSGSRTDFTLTISSLQPEDFATYYCQQSVSVPYTFGQGTKLEIK = 7.78e-05
2) H1H3592P2 (antibody, V domains shown) VH: EVQLVESGGDLVQPGRSLRLSCVASGFTFDDYAMHWVRQAPGKGLEWVSGVSWSGSTVGYADSVKGRFTVSRDNAQKSLYLQMNSLRAEDTALYYCVKDAYKYNYYYYGLDVWGQGTTVTVSS VL: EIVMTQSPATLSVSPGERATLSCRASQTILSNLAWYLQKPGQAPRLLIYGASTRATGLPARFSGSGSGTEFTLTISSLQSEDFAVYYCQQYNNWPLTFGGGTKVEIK = 0.00146
3) H1H3591P (antibody, V domains shown) VH: EVQLVESGGGLVQPGRSLRLSCAASGFTFDDYAMHWVRQTPGKGLEWISGISWSSGTIVYADSVKGRFTISRDNAKNSLYLQMNSLRGEDTALYHCAKDGYRWKSYSYGLDVWGQGTTVTVSS VL: EIVMTQSPATLSLSPGERATLSCRPSQSVINNLAWYQQKPGQAPRLLIFGASSRATGIPARFSGSGSGTEFTLTISSLQSEDFALYYCQQYNNWPLTFGGGTKVEIK = 0.00153
4) H1H3592P (antibody, V domains shown) VH: EVQLVESGGDLVQPGRSLRLSCVASGFTFDDYAMHWVRQAPGKGLEWVSGVSWSGSTVGYADSVKGRFTVSRDNAQKSLYLQMNSLRAEDTALYYCVKDAYKWNYYYYGLDVWGQGTTVTVSS VL: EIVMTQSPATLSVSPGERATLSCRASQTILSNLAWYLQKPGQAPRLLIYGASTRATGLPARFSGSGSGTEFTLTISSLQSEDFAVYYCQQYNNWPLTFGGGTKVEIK = 0.000466
5) H1H3592P3 (antibody, V domains shown) VH: EVQLVESGGDLVQPGRSLRLSCVASGFTFDDYAMHWVRQAPGKGLEWVSGVSWSGSTVGYADSVKGRFTVSRDNAQKSLYLQMNSLRAEDTALYYCVKDAYKFNYYYYGLDVWGQGTTVTVSS VL: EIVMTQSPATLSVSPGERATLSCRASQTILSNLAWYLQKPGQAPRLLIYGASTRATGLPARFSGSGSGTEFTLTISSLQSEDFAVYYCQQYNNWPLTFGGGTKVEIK = 0.000747

The reported numbers originate from patent US20140271653A1.
